These measurements were taken from ChEMBL document CHEMBL1961873.

Collected inhibition values appear next to each entry.
- Assayed target: Inhibitor of nuclear factor kappa-B kinase subunit epsilon (Homo sapiens);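 further: mean inhibition of IKKε reported, from the GSK PKIS dataset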
- Conditions: at 0.1 µM
Numbers only; they are read as %.

{"columns": ["Compound", "Recorded result"],
 "data": [
  ["CS(=O)(=O)CCNCc1ccoc1-c1ccc2ncnc(Nc3ccc(OCc4ccccc4)cc3)c2c1", -0.44],
  ["CC(C)c1ccc(-c2cc(-c3c[nH]nc3-c3ccccn3)ccn2)cc1", 1.33],
  ["COc1cc2c(cc1Nc1nc(Nc3cccc(F)c3C(N)=O)c3cc[nH]c3n1)N(C(=O)CN1CCN(C(C)C)CC1)CC2", 3.12],
  ["Fc1cccc(COc2ccc(Nc3ncncc3C#Cc3ccccc3)cc2Cl)c1", 7.72],
  ["COC(=O)Nc1nc2ccc(Oc3ccc(NC(=O)Nc4cc(C(F)(F)F)ccc4F)cc3)cc2s1", -0.11],
  ["CCOc1ccc2c(-c3ccnc(Nc4cc(OC)cc(C(F)(F)F)c4)n3)cnn2n1", 2.74]
]}

Qu. Find the recorded inhibition belonging to COc1cccc(Nc2nccc(-c3cnn4ncccc34)n2)c1 and report it.
Ans. 3.06

Qu. What value of inhibition has been recorded for this entry: COc1ccc(-c2nn3ncccc3c2-c2ccnc(Nc3ccc(F)c(F)c3)n2)cc1
Ans. 9.89

Qu. Can you share its inhibition? I mean this compound: Cc1c2ccc(N(C)c3ccnc(Nc4cccc(S(N)(=O)=O)c4)n3)cc2nn1C
Ans. 4.78

Qu. Find the recorded inhibition belonging to NC(=O)c1ccc2c(-c3ccnc(NCCCO)n3)c(-c3ccc(F)cc3)nn2c1 and report it.
Ans. 4.91

Qu. Look up inhibition for this compound: CC1=C(C(=O)Nc2ccc3[nH]nc(C)c3c2)C(c2ccc(C(F)(F)F)cc2)CC(=O)N1 (centres undefined)
Ans. 0.85

Qu. Record request: inhibition value, item COc1cccc(-n2ncc3c(N/N=C/c4ccc(C(=O)NCCN(C)C)cc4)ncnc32)c1
Ans. -1.79

Qu. Return reported inhibition; argument: CN(c1ccc(NC(=O)NCCN2CCOCC2)cc1)c1ccnc(Nc2ccc(CS(C)(=O)=O)cc2)n1
Ans. 3.55

Qu. Using the record for CS(=O)(=O)Nc1ccc(-c2cc(-c3ccccc3)cc(C(N)=O)c2N)cc1 , report its inhibition.
Ans. 0.29

Qu. # get_value(readout='inhibition', item= CCN1CCC(C(=O)Nc2n[nH]c3nnc(-c4cccc(F)c4F)cc23)CC1 )
Ans. -2.1

Qu. Quick one: inhibition for O=C(O[C@H]1CN[C@H](C#Cc2cc3ncnc(Nc4ccc5c(ccn5Cc5cc(F)ccc5F)c4)c3s2)C1)N1CCOCC1 ?
Ans. 6.23

Qu. // inhibition lookup, key: O=C(O[C@H]1CN[C@H](C#Cc2cc3ncnc(Nc4ccc(OCc5cccc(F)c5)c(Cl)c4)c3s2)C1)N1CCOCC1
Ans. 8.36

Qu. Given the compound Cc1ccc(-c2cc3c(NC(=O)C4CC4)ncnc3o2)cc1 , what is its reported inhibition?
Ans. 4.06

Qu. Bench note: what inhibition did NS(=O)(=O)c1cccc(N/C=C2\C(=O)Nc3ccccc32)c1 show?
Ans. 6.35

* * *

- Assayed target: Serine/threonine-protein kinase Sgk3 (Homo sapiens);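 further: each value is a mean of replicate inhibition readings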
- Conditions: at 1 µM
Reported values of inhibition for individual entries
Express your answer in %, writing the number without its unit.

Recorded inhibition, per entry:
{"columns": ["Smiles notation", "Assayed target", "Recorded result"],
 "data": [
  ["NC(=O)c1ccc2c(-c3ccnc(NCCCO)n3)c(-c3ccc(F)cc3)nn2c1", "Serine/threonine-protein kinase Sgk3 (Homo sapiens)", 1.28],
  ["CN1CCC(n2cnc(-c3ccc(F)cc3)c2-c2ccnc(NCCO)n2)CC1", "Serine/threonine-protein kinase Sgk3 (Homo sapiens)", 3.95],
  ["c1cnn2ncc(-c3ccnc(NCCCN4CCOCC4)n3)c2c1", "Serine/threonine-protein kinase Sgk3 (Homo sapiens)", 8.34]
]}

In the following, a different compound is considered.
Qu. Query: inhibition; subject: O=C1Nc2ccccc2/C1=C1\CCc2cc(O)ccc21
Ans. 5.81
